tested on: Bifidobacterium; assay: Antimicrobial activity in Bifidobacterium by CLSI agar dilution method; format: functional
Readout: MIC50 (µg/mL)
The figure you give is taken to be in µg/mL; do not add the unit.

CCC[C@@H]1C[C@@H](C(=O)N[C@@H]([C@H]2O[C@H](SC)[C@H](O)[C@@H](O)[C@H]2O)[C@H](C)Cl)N(C)C1 [CLINDAMYCIN]; 0.03
C[C@@H](O)[C@H]1C(=O)N2C(C(=O)O)=C(S[C@H]3CC[S@@+]([O-])C3)S[C@H]12 [SULOPENEM]; 0.25

--- query ---
For reference, reported MIC50 for C[C@@H](O)[C@H]1C(=O)N2C(C(=O)O)=C(SCCNC=N)C[C@H]12 [IMIPENEM ANHYDROUS] stands at 0.03

---

This listing pairs compounds with measured MIC50.
system: Bacteroides thetaiotaomicron; assay: Antimicrobial activity in Bacteroides thetaiotaomicron by CLSI agar dilution method; assay type: functional
The figure you give is taken to be in µg/mL; do not add the unit.

Illustrative cases are given below, each with its answer.
Cc1ncc([N+](=O)[O-])n1CCO; 1
C[C@@H](O)[C@H]1C(=O)N2C(C(=O)O)=C(S[C@H]3CC[S@@+]([O-])C3)S[C@H]12; 0.25
C[C@@H](O)[C@H]1C(=O)N2C(C(=O)O)=C(SCCNC=N)C[C@H]12 [IMIPENEM ANHYDROUS]; 0.25

--- query ---
For reference, reported MIC50 for `CCC[C@@H]1C[C@@H](C(=O)N[C@@H]([C@H]2O[C@H](SC)[C@H](O)[C@@H](O)[C@H]2O)[C@H](C)Cl)N(C)C1` stands at 4

---

tested on: Bacteroides ovatus; test: Antimicrobial activity in Bacteroides ovatus by CLSI agar dilution method; format: functional
Readout: MIC50 (µg/mL)
The figure you give is taken to be in µg/mL; do not add the unit.

Cc1ncc([N+](=O)[O-])n1CCO; 1

For reference, reported MIC50 for C[C@@H](O)[C@H]1C(=O)N2C(C(=O)O)=C(SCCNC=N)C[C@H]12 [IMIPENEM ANHYDROUS] stands at 0.125

For reference, reported MIC50 for `C[C@@H](O)[C@H]1C(=O)N2C(C(=O)O)=C(S[C@H]3CC[S@@+]([O-])C3)S[C@H]12` stands at 0.25

For reference, reported MIC50 for `CCC[C@@H]1C[C@@H](C(=O)N[C@@H]([C@H]2O[C@H](SC)[C@H](O)[C@@H](O)[C@H]2O)[C@H](C)Cl)N(C)C1` stands at 2

---

test system: Fusobacterium necrophorum; assay: Antimicrobial activity in Fusobacterium necrophorum by CLSI agar dilution method; assay type: functional
Readout: MIC

Cc1ncc([N+](=O)[O-])n1CCO; ≤ 0.125 µg/mL
C[C@@H](O)[C@H]1C(=O)N2C(C(=O)O)=C(S[C@H]3CC[S@@+]([O-])C3)S[C@H]12; ≤ 0.016 µg/mL
C[C@@H](O)[C@H]1C(=O)N2C(C(=O)O)=C(SCCNC=N)C[C@H]12 [IMIPENEM ANHYDROUS]; ≤ 0.016 µg/mL

--- query ---
For reference, reported MIC for `CCC[C@@H]1C[C@@H](C(=O)N[C@@H]([C@H]2O[C@H](SC)[C@H](O)[C@@H](O)[C@H]2O)[C@H](C)Cl)N(C)C1` stands at ≤ 0.016 µg/mL

The measurements presented in this section are drawn from ChEMBL document CHEMBL1649156.
